Ki reference
- Test Target: PaMTIP (Pseudomonas aeruginosa, UniProt Q9HZK1)
- Sequence (Q9HZK1 whole entry): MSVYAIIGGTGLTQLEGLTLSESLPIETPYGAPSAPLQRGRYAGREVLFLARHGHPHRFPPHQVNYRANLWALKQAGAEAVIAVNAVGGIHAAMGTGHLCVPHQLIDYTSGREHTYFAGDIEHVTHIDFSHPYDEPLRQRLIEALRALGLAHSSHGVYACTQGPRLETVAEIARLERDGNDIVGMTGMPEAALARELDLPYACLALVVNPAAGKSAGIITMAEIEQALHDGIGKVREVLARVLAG
- Experiment Notes: PaMTIP inhibition assay
- Type: biochemical
- Condition Context: second binding phase after slow-onset; 1 nM PaMTIP, 2 mM MTI, 25 °C, pH 7.4

Given Smiles | Ki / pM
CSC[C@H]1N[C@@H](c2c[nH]c3c(=O)[nH]cnc23)[C@H](O)[C@@H]1O | 76
O=c1[nH]cnc2c([C@@H]3N[C@H](CSc4ccccc4)[C@@H](O)[C@H]3O)c[nH]c12 | 35
CSC[C@H]1CN(Cc2c[nH]c3c(=O)[nH]cnc23)C[C@@H]1O | 340

Taken from paper PMC3040260.
